- TARGET_ENTITY: T1, orthogonal hCD122 receptor (hoRb), hCD122 with H133D and Y134F (human, UniProt P14784 27-550)
- T1 sequence: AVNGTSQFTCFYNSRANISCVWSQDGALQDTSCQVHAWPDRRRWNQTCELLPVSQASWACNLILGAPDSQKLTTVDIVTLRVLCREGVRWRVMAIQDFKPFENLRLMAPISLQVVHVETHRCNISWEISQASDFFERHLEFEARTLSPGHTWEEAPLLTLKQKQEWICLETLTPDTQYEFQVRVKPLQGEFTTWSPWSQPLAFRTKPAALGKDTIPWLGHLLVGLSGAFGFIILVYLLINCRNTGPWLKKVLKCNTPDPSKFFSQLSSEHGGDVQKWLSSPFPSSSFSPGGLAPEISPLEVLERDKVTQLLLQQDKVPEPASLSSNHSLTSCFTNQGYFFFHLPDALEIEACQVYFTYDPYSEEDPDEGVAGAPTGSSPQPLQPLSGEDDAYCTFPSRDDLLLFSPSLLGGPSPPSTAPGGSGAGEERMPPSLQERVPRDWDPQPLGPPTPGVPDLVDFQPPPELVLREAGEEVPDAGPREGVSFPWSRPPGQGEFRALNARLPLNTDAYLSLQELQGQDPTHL
- TEST_DETAILS: cell-based or functional assay
MEASURED_METRIC: NKL Ortho Proliferation Signal 1:10
Answers are plain numbers.

[
  {
    "BINDER": "L18K, SQVLKA (ligand) APTSSSTKKTQLQLSQLKVLLKAILNGINNYKNPKLTRMLTFKFYMPKKATELKHLQCLEEELKPLEEVLNLAQSKNFHLRPRDLISNINVIVLELKGSETTFMCEYADETATIVEFLNRWITFCQSIISTLT",
    "TEST_VALUE": 20200
  }
]

Answer for every listed entry: what is its NKL Ortho Proliferation Signal 1:10? The entries follow.
1. SQVLRA (ligand) APTSSSTKKTQLQLSQLLVLLRAILNGINNYKNPKLTRMLTFKFYMPKKATELKHLQCLEEELKPLEEVLNLAQSKNFHLRPRDLISNINVIVLELKGSETTFMCEYADETATIVEFLNRWITFCQSIISTLT
2. SQVSKA (ligand) APTSSSTKKTQLQLSQLLVSLKAILNGINNYKNPKLTRMLTFKFYMPKKATELKHLQCLEEELKPLEEVLNLAQSKNFHLRPRDLISNINVIVLELKGSETTFMCEYADETATIVEFLNRWITFCQSIISTLT

Result:
[68400, 73700]
